Test: Plasma pharmacokinetics after a single subcutaneous dose in healthy volunteers
Type: in vivo, human
Conditions: male, human, plasma, sc, 300 ug
*1 amine or outer side, *2 acyl side, *3 side chain or, on linkers, in order; H or OH if unused. Where a SMILES comes first, the peptide text is derived from it. Side-chain parts run from the residue outwards. [ ]: non-standard residue; d: D form. The star is where a group is joined. Ethylenediamine = C(CN[*:2])N[*:1]; Hyp = O=C(O)[C@@H]1C[C@@H](O)CN1; Phg = N[C@H](C(=O)O)c1ccccc1; CO = O=C([*:1])[*:2]; Bn = c1ccc(C*)cc1
Measurement Type: AUC(0-t)

INSERT INTO results (molecule, test_value) VALUES
  ('NCCCC[C@@H]1NC(=O)[C@@H](Cc2c[nH]c3ccccc23)NC(=O)[C@H](c2ccccc2)NC(=O)[C@@H]2C[C@@H](OC(=O)NCCN)CN2C(=O)[C@H](Cc2ccccc2)NC(=O)[C@H](Cc2ccc(OCc3ccccc3)cc2)NC1=O [Pasireotide] (cyclo([Hyp]([CO-Ethylenediamine])[Phg][dW]KY(Bn)F))', '26 ng·h/mL');

###

Assay: Plasma pharmacokinetics after a single subcutaneous dose in healthy volunteers
Assay type: in vivo, human
Details: male, human, plasma, sc, 100 ug
*1 amine or outer side, *2 acyl side, *3 side chain or, on linkers, in order; H or OH if unused. Where a SMILES comes first, the peptide text is derived from it. Side-chain parts run from the residue outwards. [ ]: non-standard residue; d: D form. The star is where a group is joined. Ethylenediamine = C(CN[*:2])N[*:1]; Hyp = O=C(O)[C@@H]1C[C@@H](O)CN1; Phg = N[C@H](C(=O)O)c1ccccc1; CO = O=C([*:1])[*:2]; Bn = c1ccc(C*)cc1
Measurement Type: AUC(0-inf) (ng·h/mL)

INSERT INTO measurements (compound, measurement_type, test_value) VALUES
  ('NCCCC[C@@H]1NC(=O)[C@@H](Cc2c[nH]c3ccccc23)NC(=O)[C@H](c2ccccc2)NC(=O)[C@@H]2C[C@@H](OC(=O)NCCN)CN2C(=O)[C@H](Cc2ccccc2)NC(=O)[C@H](Cc2ccc(OCc3ccccc3)cc2)NC1=O [Pasireotide] (cyclo([Hyp]([CO-Ethylenediamine])[Phg][dW]KY(Bn)F))', 'AUC(0-inf)', 9.59);

###

Assay: Plasma pharmacokinetics after a single subcutaneous dose in healthy volunteers
Format: in vivo, human
Settings: male, human, plasma, sc, 10 ug
*1 amine or outer side, *2 acyl side, *3 side chain or, on linkers, in order; H or OH if unused. Where a SMILES comes first, the peptide text is derived from it. Side-chain parts run from the residue outwards. [ ]: non-standard residue; d: D form. The star is where a group is joined. Ethylenediamine = C(CN[*:2])N[*:1]; Hyp = O=C(O)[C@@H]1C[C@@H](O)CN1; Phg = N[C@H](C(=O)O)c1ccccc1; CO = O=C([*:1])[*:2]; Bn = c1ccc(C*)cc1
Measurement Type: Vd/F (L)

INSERT INTO measurements (compound, test_value) VALUES
  ('NCCCC[C@@H]1NC(=O)[C@@H](Cc2c[nH]c3ccccc23)NC(=O)[C@H](c2ccccc2)NC(=O)[C@@H]2C[C@@H](OC(=O)NCCN)CN2C(=O)[C@H](Cc2ccccc2)NC(=O)[C@H](Cc2ccc(OCc3ccccc3)cc2)NC1=O [Pasireotide] (cyclo([Hyp]([CO-Ethylenediamine])[Phg][dW]KY(Bn)F))', 38.1);
